# inhibition at 20 µM per record follows
Biological target: KRas G12C mutant (Homo sapiens (Human), UniProt P01116, G12C)
Sequence (P01116-2 other isoform, or with tags, fused parts or gaps G12C): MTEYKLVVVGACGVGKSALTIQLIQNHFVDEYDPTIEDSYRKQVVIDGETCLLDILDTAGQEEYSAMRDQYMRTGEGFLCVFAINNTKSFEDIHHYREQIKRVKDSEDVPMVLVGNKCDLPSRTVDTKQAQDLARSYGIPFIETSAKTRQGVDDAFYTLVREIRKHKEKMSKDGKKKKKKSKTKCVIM
Experiment: Ras GTP binding domain inhibition assay (labeled GTP)
Conditions: compound at 20 μM
measurement-label: inhibition at 20 µM

item-smiles	assay-result
Oc1nc(-c2ccccn2)nc2ccsc12	25 to 50%
CN(C)COc1ccc(-c2csc3c(O)nc(-c4ccccn4)nc23)cn1	51 to 75%
Oc1nc(-c2ccccn2)nc2c(-c3ccccc3)csc12	1 to 25%
Cc1cc2nc(-c3ccccn3)nc(O)c2s1	1 to 25%
O=C(c1csc2c(O)nc(-c3ccccn3)nc12)N1CCN(c2cccnc2)CC1	25 to 50%
O=C(CCC1N=NN=N1)Nc1nc(-c2ccccn2)nc2sccc12	25 to 50%
O=C(CCCc1cccnc1)N1CCCc2c(O)nc(-c3ccccn3)nc21	51 to 75%

====

System: MIA-PACA2 pancreatic cancer cell lines
Experiment: Cell proliferation assay, MIA-PACA2, alternate assay conditions (DAPI staining, 4 days)
Assay type: cell-based
Conditions: Homo sapiens, MIA PaCa-2; same assay as % inhibition: alternate conditions

item-smiles	target-of-assay	IC50
COc1ccc(-c2c(-c3ccccc3)sc3c(O)nc(-c4cccn4C)nc23)cn1	MIA-PACA2 pancreatic cancer cell lines	501 to 1000 nM

====

# inhibition at 20 µM per record follows
Molecular target: KRas wild type (Homo sapiens (Human))
Sequence (P01116-2 other isoform, or with tags, fused parts or gaps): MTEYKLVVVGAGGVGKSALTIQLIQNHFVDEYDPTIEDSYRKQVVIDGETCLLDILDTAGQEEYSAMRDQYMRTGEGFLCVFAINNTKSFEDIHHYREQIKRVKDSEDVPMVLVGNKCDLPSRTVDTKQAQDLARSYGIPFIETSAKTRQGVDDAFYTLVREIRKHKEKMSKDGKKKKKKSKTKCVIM
Test: Ras GTP binding domain inhibition assay (labeled GTP)
Conditions: 20 μM compound

compound	target-of-assay	inhibition at 20 µM
CCC(C)c1csc2c(O)nc(-c3ccccn3)nc12 (stereo not shown) [drawing 3492]	KRas wild type (Homo sapiens (Human))	25 to 50%
COCCNc1nc(-c2nccn2C)nc2sc(-c3ccccc3)c(-c3cccnc3)c12	KRas wild type (Homo sapiens (Human))	51 to 75%
OC[C@H]1O[C@@H](c2csc3c2N=C(c2ccccn2)NC3O)[C@H](O)[C@@H]1O (stereo partly shown)	KRas wild type (Homo sapiens (Human))	25 to 50%
Cc1sc2c(O)nc(-c3nccn3C)nc2c1-c1ccccc1Cl	KRas wild type (Homo sapiens (Human))	25 to 50%

====

Target: KRas G12D mutant protein (Homo sapiens (Human), UniProt P01116, G12D)
Sequence (P01116-2 other isoform, or with tags, fused parts or gaps G12D): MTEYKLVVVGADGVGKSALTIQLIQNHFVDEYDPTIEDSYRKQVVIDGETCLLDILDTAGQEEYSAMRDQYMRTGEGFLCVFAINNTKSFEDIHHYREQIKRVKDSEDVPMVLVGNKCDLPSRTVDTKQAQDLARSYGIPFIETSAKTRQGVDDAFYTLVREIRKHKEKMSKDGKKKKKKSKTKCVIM
Experiment: Ras GTP binding domain inhibition assay (labeled GTP)
Conditions: compound at 20 μM
# inhibition at 20 µM per record follows

item-smiles	inhibition at 20 µM
O=C(c1csc2c(O)nc(-c3ccccn3)nc12)N1CCN(c2cccnc2)CC1	51 to 75%
Oc1nc(-c2ccccn2)nc2ccsc12	1 to 25%
O=C(CCC1N=NN=N1)Nc1nc(-c2ccccn2)nc2sccc12	51 to 75%
CN(C)COc1ccc(-c2csc3c(O)nc(-c4ccccn4)nc23)cn1	51 to 75%
O=C(CCCc1cccnc1)N1CCCc2c(O)nc(-c3ccccn3)nc21	51 to 75%

====

# inhibition at 20 µM per record follows
Biological target: KRas G12D/Q61H double mutant (Homo sapiens (Human), UniProt P01116, G12D/Q61H)
Sequence (P01116-2 other isoform, or with tags, fused parts or gaps G12D/Q61H): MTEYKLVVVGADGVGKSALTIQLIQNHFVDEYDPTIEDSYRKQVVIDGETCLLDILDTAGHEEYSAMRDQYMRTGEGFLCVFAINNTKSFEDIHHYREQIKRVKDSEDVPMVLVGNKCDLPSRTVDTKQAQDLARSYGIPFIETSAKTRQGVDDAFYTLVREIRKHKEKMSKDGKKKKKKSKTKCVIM
Assay: Ras GTP binding domain inhibition assay (labeled GTP)
Conditions: compound at 20 μM; read-out: % Inhibition at 20 μM, KRas G12D Q61H

compound	inhibition at 20 µM
Cc1sc2nc(-c3cnccn3)[nH]c(=O)c2c1-c1ccccc1	25 to 50%
O=C(CCC1N=NN=N1)Nc1nc(-c2ccccn2)nc2sccc12	51 to 75%
O=C(CCCc1cccnc1)N1CCCc2c(O)nc(-c3ccccn3)nc21	51 to 75%
COc1ccc(CCNC(=O)c2cc(S(=O)(=O)N3CCCCCC3)ccc2OC)cc1OC	25 to 50%
CN(C)COc1ccc(-c2csc3c(O)nc(-c4ccccn4)nc23)cn1	51 to 75%
Cc1ccc(OCc2nnc(SCC3CCCOC3)o2)cc1 (centres unmarked)	1 to 25%
COc1ccc(CCOC(=O)Nc2ccnc(-c3ccccn3)n2)cn1	25 to 50%
O=C(c1csc2c(O)nc(-c3ccccn3)nc12)N1CCN(c2cccnc2)CC1	51 to 75%
CCOC(=O)c1sc(N(C2CC2)S(=O)(=O)c2cc(F)ccc2F)nc1C	25 to 50%
Oc1nc(-c2ccccn2)nc2ccsc12	25 to 50%
N#Cc1ccc(C2CCCN2c2ccco2)cc1C(F)(F)F (centres unmarked)	1 to 25%
